test system: 349418-098-R-PDC complex spheroid growth; test: Anticancer human tumor 349418-098-R-PDC patient-derived lung adenocarcinoma cell line growth inhibition [AhR]; settings: second compound 3.16 µM; first compound 0.00949 µM; hits give low values
We begin with a simple list: items and their reported viability, T/C.
The reply should be a number in %, with the unit left off.

As a guide, the following entries are already answered.
Given the entry Nc1ncn(C2CC(O)C(CO)S2)c(=O)n1 (stereo unspecified) + CC(CO)NC(=O)c1cc(-c2ccc(Cl)cc2)nn(-c2cnn(C)c2)c1=O , report its measured viability, T/C.
66.5

Given the entry O=C(C=Cn1cnc(-c2cc(C(F)(F)F)cc(C(F)(F)F)c2)n1)NNc1cnccn1 + Cc1cncc(-c2nc(NCCc3c[nH]c4ccccc34)c3ncn(C(C)C)c3n2)c1 , report its measured viability, T/C.
31.8

Given the entry CCN(c1cc(-c2ccc(CN3CCOCC3)cc2)cc(C(=O)NCc2c(C)cc(C)[nH]c2=O)c1C)C1CCOCC1 + Cc1ccccc1N=Nc1ccc(NC(=O)c2ccnn2C)c(C)c1 , report its measured viability, T/C.
76.8

Given the entry Nc1ncn(C2CC(O)C(CO)S2)c(=O)n1 (stereo unspecified) + Cc1cncc(-c2nc(NCCc3c[nH]c4ccccc34)c3ncn(C(C)C)c3n2)c1 , report its measured viability, T/C.
94.6

Given the entry CCc1c2c(nc3ccc(O)cc13)-c1cc3c(c(=O)n1C2)COC(=O)[C@]3(O)CC + CC(CO)NC(=O)c1cc(-c2ccc(Cl)cc2)nn(-c2cnn(C)c2)c1=O , report its measured viability, T/C.
13

Others:
Given the entry CC(C)CC(NC(=O)C(Cc1ccccc1)NC(=O)c1cnccn1)B(O)O (stereo unspecified) + Cc1cncc(-c2nc(NCCc3c[nH]c4ccccc34)c3ncn(C(C)C)c3n2)c1 , report its measured viability, T/C.
1.01

----------
system: 349418-098-R-PDC complex spheroid growth; test: Anticancer human tumor 349418-098-R-PDC cell line growth inhibition [AhR]; conditions: second compound 0.316 µM; first compound 0.316 µM; active = viability on the fitted dose curve at most 10% of control; inactive = the rest;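 note: spheroids also contain HUVEC endothelial cells and human MSC stroma; spheroids exposed to agents for seven days before luminescence viability read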
Please state which outcome applies, choosing from active, inactive

Known results for compounds:
How did this test come out for Nc1ncn(C2CC(O)C(CO)O2)c(=O)n1 (centres undefined) + Cc1cncc(-c2nc(NCCc3c[nH]c4ccccc34)c3ncn(C(C)C)c3n2)c1 ?
inactive

How did this test come out for COc1cc(C2c3cc4c(cc3C(OC3OC5COC(C)OC5C(O)C3O)C3COC(=O)C23)OCO4)cc(OC)c1O (centres undefined) + CC(CO)NC(=O)c1cc(-c2ccc(Cl)cc2)nn(-c2cnn(C)c2)c1=O ?
inactive

How did this test come out for CC1COCCN1c1cc(C2(S(C)(=N)=O)CC2)nc(-c2ccnc3[nH]ccc23)n1 (centres undefined) + Cc1cncc(-c2nc(NCCc3c[nH]c4ccccc34)c3ncn(C(C)C)c3n2)c1 ?
inactive

How did this test come out for CC(C)c1c(-c2ccccc2)nc2c(C#N)c[nH]n2c1=O + CC(CO)NC(=O)c1cc(-c2ccc(Cl)cc2)nn(-c2cnn(C)c2)c1=O ?
inactive

How did this test come out for Nc1ccn(C2OC(CO)C(O)C2(F)F)c(=O)n1 (centres undefined) + Cc1ccccc1N=Nc1ccc(NC(=O)c2ccnn2C)c(C)c1 ?
inactive

Others:
How did this test come out for O=C(C=Cc1cccc(S(=O)(=O)Nc2ccccc2)c1)NO + CC(CO)NC(=O)c1cc(-c2ccc(Cl)cc2)nn(-c2cnn(C)c2)c1=O ?
inactive

How did this test come out for CC(C)c1c(-c2ccccc2)nc2c(C#N)c[nH]n2c1=O + Cc1cncc(-c2nc(NCCc3c[nH]c4ccccc34)c3ncn(C(C)C)c3n2)c1 ?
inactive

How did this test come out for O=C(C=Cc1cccc(S(=O)(=O)Nc2ccccc2)c1)NO + Cc1cncc(-c2nc(NCCc3c[nH]c4ccccc34)c3ncn(C(C)C)c3n2)c1 ?
inactive

How did this test come out for Nc1ccn(C2OC(CO)C(O)C2(F)F)c(=O)n1 (centres undefined) + Cc1cncc(-c2nc(NCCc3c[nH]c4ccccc34)c3ncn(C(C)C)c3n2)c1 ?
active

How did this test come out for O=C(c1cc(Cc2n[nH]c(=O)c3ccccc23)ccc1F)N1CCN(C(=O)C2CC2)CC1 + Cc1cncc(-c2nc(NCCc3c[nH]c4ccccc34)c3ncn(C(C)C)c3n2)c1 ?
inactive

How did this test come out for COc1cccc2c1C(=O)c1c(O)c3c(c(O)c1C2=O)CC(O)(C(=O)CO)CC3OC1CC(N)C(O)C(C)O1 (centres undefined) + Cc1ccccc1N=Nc1ccc(NC(=O)c2ccnn2C)c(C)c1 ?
active

How did this test come out for CC1COCCN1c1cc(-c2ccnn2C)c2ccnc(-c3ccn[nH]3)c2n1 (centres undefined) + Cc1ccccc1N=Nc1ccc(NC(=O)c2ccnn2C)c(C)c1 ?
inactive

How did this test come out for COc1ccc([C@@H](O)c2cc(-c3ncnc4cc(N5CCOCC5)ccc34)c(F)cc2Cl)nn1 + Cc1cncc(-c2nc(NCCc3c[nH]c4ccccc34)c3ncn(C(C)C)c3n2)c1 ?
inactive

How did this test come out for Nc1ncn(C2CC(O)C(CO)O2)c(=O)n1 (centres undefined) + CC(CO)NC(=O)c1cc(-c2ccc(Cl)cc2)nn(-c2cnn(C)c2)c1=O ?
inactive

----------
tested on: 349418-098-R-PDC complex spheroid growth; assay: Anticancer human tumor 349418-098-R-PDC cell line growth inhibition [AhR]; details: second compound 0.1 µM; first compound 0.949 µM; active = viability on the fitted dose curve at most 10% of control; inactive = the rest;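 note: spheroids also contain HUVEC endothelial cells and human MSC stroma; spheroids exposed to agents for seven days before luminescence viability read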
Please state which outcome applies, choosing from active, inactive

Known results for molecules:
How did this test come out for CCN(c1cc(-c2ccc(CN3CCOCC3)cc2)cc(C(=O)NCc2c(C)cc(C)[nH]c2=O)c1C)C1CCOCC1 + CC(CO)NC(=O)c1cc(-c2ccc(Cl)cc2)nn(-c2cnn(C)c2)c1=O ?
inactive

How did this test come out for O=C(C=Cn1cnc(-c2cc(C(F)(F)F)cc(C(F)(F)F)c2)n1)NNc1cnccn1 + Cc1cncc(-c2nc(NCCc3c[nH]c4ccccc34)c3ncn(C(C)C)c3n2)c1 ?
active

Others:
How did this test come out for O=C(C=Cn1cnc(-c2cc(C(F)(F)F)cc(C(F)(F)F)c2)n1)NNc1cnccn1 + Cc1ccccc1N=Nc1ccc(NC(=O)c2ccnn2C)c(C)c1 ?
active

How did this test come out for CCN(c1cc(-c2ccc(CN3CCOCC3)cc2)cc(C(=O)NCc2c(C)cc(C)[nH]c2=O)c1C)C1CCOCC1 + Cc1cncc(-c2nc(NCCc3c[nH]c4ccccc34)c3ncn(C(C)C)c3n2)c1 ?
inactive

How did this test come out for CCN(c1cc(-c2ccc(CN3CCOCC3)cc2)cc(C(=O)NCc2c(C)cc(C)[nH]c2=O)c1C)C1CCOCC1 + Cc1ccccc1N=Nc1ccc(NC(=O)c2ccnn2C)c(C)c1 ?
inactive

How did this test come out for O=C(C=Cn1cnc(-c2cc(C(F)(F)F)cc(C(F)(F)F)c2)n1)NNc1cnccn1 + CC(CO)NC(=O)c1cc(-c2ccc(Cl)cc2)nn(-c2cnn(C)c2)c1=O ?
active

----------
tested on: 349418-098-R-PDC complex spheroid growth; assay: Anticancer human tumor 349418-098-R-PDC cell line growth inhibition [AhR]; conditions: second compound 10 µM; first compound 3.16 µM; hits give low values;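 note: spheroids also contain HUVEC endothelial cells and human MSC stroma; spheroids exposed to agents for seven days before luminescence viability read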
Output T for records whose viability, T/C is lower than 2%, F for records at or above 2%.

Report whether reported viability, T/C is lower than 2% (strictly) for Nc1ccccc1NC(=O)c1ccc(CNC(=O)OCc2cccnc2)cc1 + Cc1cncc(-c2nc(NCCc3c[nH]c4ccccc34)c3ncn(C(C)C)c3n2)c1
T

Others:
Report whether reported viability, T/C is lower than 2% (strictly) for O=C(C=Cc1cccc(S(=O)(=O)Nc2ccccc2)c1)NO + Cc1cncc(-c2nc(NCCc3c[nH]c4ccccc34)c3ncn(C(C)C)c3n2)c1
T

Report whether reported viability, T/C is lower than 2% (strictly) for COc1cc(Nc2ncc3c(n2)-c2ccc(Cl)cc2C(c2c(F)cccc2OC)=NC3)ccc1C(=O)O + Cc1ccccc1N=Nc1ccc(NC(=O)c2ccnn2C)c(C)c1
F

Report whether reported viability, T/C is lower than 2% (strictly) for COc1ccc([C@@H](O)c2cc(-c3ncnc4cc(N5CCOCC5)ccc34)c(F)cc2Cl)nn1 + CC(CO)NC(=O)c1cc(-c2ccc(Cl)cc2)nn(-c2cnn(C)c2)c1=O
F

Report whether reported viability, T/C is lower than 2% (strictly) for COc1cc(C2c3cc4c(cc3C(OC3OC5COC(C)OC5C(O)C3O)C3COC(=O)C23)OCO4)cc(OC)c1O (stereo not drawn) + CC(CO)NC(=O)c1cc(-c2ccc(Cl)cc2)nn(-c2cnn(C)c2)c1=O
F

Report whether reported viability, T/C is lower than 2% (strictly) for NS(=O)(=O)OCC1CC(n2ccc3c(NC4CCc5ccccc54)ncnc32)CC1O (stereo not drawn) + Cc1ccccc1N=Nc1ccc(NC(=O)c2ccnn2C)c(C)c1
F

Report whether reported viability, T/C is lower than 2% (strictly) for COc1ccc([C@@H](O)c2cc(-c3ncnc4cc(N5CCOCC5)ccc34)c(F)cc2Cl)nn1 + Cc1cncc(-c2nc(NCCc3c[nH]c4ccccc34)c3ncn(C(C)C)c3n2)c1
T

Report whether reported viability, T/C is lower than 2% (strictly) for Nc1ccn(C2OC(CO)C(O)C2(F)F)c(=O)n1 (stereo not drawn) + Cc1cncc(-c2nc(NCCc3c[nH]c4ccccc34)c3ncn(C(C)C)c3n2)c1
F
